Every entry's value here was drawn from the supplement of paper PMC11451515.

- Tested on: SEM cells
- assay_remarks: cell viability relative to DMSO control; higher = less cytotoxic
- experimental_conditions: HPLM + 10% dialyzed FBS; 48 h; 5.12 µM
Doc: threshold 60% (exclusive). Items with cell viability beneath it return TRUE; others return FALSE.

1) O=C(Nc1cccc(Nc2ncc(Br)c(NCCc3cnc[nH]3)n2)c1)N1CCCC1    TRUE
2) C\C1=C\C(=O)C2=C(C=CC=C2)C1=O    FALSE
3) O=C(NC[C@H]1CN(c2ccc(N3CCOCC3=O)cc2)C(=O)O1)c1ccc(Cl)s1    FALSE

* * *

- System: NOMO1
- assay_remarks: cell viability relative to DMSO control; higher = less cytotoxic
- experimental_conditions: RPMI 5 mM glucose + 10% FBS; 48 h; 15.4 µM
Below is a list of entries, each paired with its recorded cell viability value.
measurement_name: cell viability (%)

1. c1cc(CN2CCCNCCNCCCNCC2)ccc1CN1CCCNCCNCCCNCC1    101
2. C[S+](=O)([O-])N(Cc1ccco1)CC(O)Cn1c2ccccc2c2ccccc21 (stereo unspecified)    86.3
3. CCOc1cc(N)c(Cl)cc1C(=O)NCC1CN(Cc2ccc(F)cc2)CCO1 (stereo unspecified)    109
4. C[C@H]1C[C@H]2[C@@H]3CCC4=CC(=O)C=C[C@]4(C)[C@@]3(F)[C@@H](O)C[C@]2(C)[C@@]1(O)C(=O)CO    120
5. C1CCC(C(CC2CCCCN2)C2CCCCC2)CC1 (stereo unspecified)    121
6. Cc1cccc(C)c1OCC(=O)N[C@@H](Cc1ccccc1)[C@@H](O)C[C@H](Cc1ccccc1)NC(=O)[C@H](C(C)C)N1CCCNC1=O    86.4
7. Clc1cc(Cl)cc(CNc2ncncc2-c2ccc3c(c2)OCO3)c1    87.7
8. O=C1\C=C/C[C@@H]2[C@H]3CCCN4CCC[C@@H](CN12)[C@@H]34    93
9. CCc1c(C(=O)C(N)=O)c2c(OCC(=O)O)cccc2n1Cc1ccccc1    100
10. [NH2][Pt]([NH2])([Cl])[Cl]    82.4
11. CC(=O)Nc1ccc([C@H](C)C(=O)Nc2ncc(C(C)C)s2)cc1    9.84
12. C[C@@H]1COCCN1C\2=C\C(=O)N\3CC[C@H](N(CC4=CN=CC(=C4)Cl)C3=N2)C(F)(F)F    57.4
13. CC(C)(C)C(=O)Oc1ccc([S+](=O)([O-])Nc2ccccc2C(=O)NCC(=O)O)cc1    109
14. O=C(CO)N1CCC(c2n[nH]c(-c3ccc(Cl)cc3)c2-c2ccncn2)CC1    57.3
15. O=C1C[C@@H](c2ccc(O)cc2)Oc2cc(O)cc(O)c21    106
16. CCOC(=O)[C@H](CCc1ccccc1)N[C@@H](C)C(=O)N1CCC[C@H]1C(=O)O    93.3

* * *

Catalogue of cell viability readings, one per entry.
- Test system: P12-Ichikawa
- assay_remarks: cell viability relative to DMSO control; higher = less cytotoxic
- experimental_conditions: HPLM + 10% dialyzed FBS; 48 h; 0.569 µM
measurement_name: cell viability (%)

1) CC[C@H]1/C=C\C=C/C[C@@H](C)[C@H](O)[C@@](C)(O)C(=O)[C@@H](C)[C@H](O)[C@@H](C)C(=O)[C@@H](C)[C@H](O)[C@@H](C)/C=C/C(=O)O[C@@H]2[C@H](C)[C@H](CC1)O[C@]1(CC[C@H](C)[C@H](C[C@@H](C)O)O1)[C@H]2C    109
2) COc1cc(C(C)=O)ccc1OCCCN1CCC(c2noc3cc(F)ccc23)CC1    129
3) Cc1ncc(OC[C@@]2(c3cccc(F)c3)C[C@H]2C(=O)Nc2ccc(F)cn2)c(C)n1    114
4) CCC[C@H](N[C@@H](C)C(=O)N1[C@H](C(=O)O)C[C@@H]2CCCC[C@@H]21)C(=O)OCC    112
5) CC(C)(C)c1cc(C=C(C#N)C#N)cc(Br)c1O    123
6) CCOc1cc(N)c(Cl)cc1C(=O)NCC1CN(Cc2ccc(F)cc2)CCO1 (stereo unspecified)    109
